system: HS 578T breast; experiment: NCI tumour cell line growth inhibition, 48 h
// TGI lookup, one value per entry

Examples from the recorded data:
- O=C1O/C(=C\c2ccc(O)c(Br)c2)C(c2ccc(O)cc2)=C1Cl: > 100 µM
- COc1cc2c(c(OC)c1OC)-c1ccc([O-])c(=O)cc1[C@@H](NC(C)=O)CC2.COc1cc2c(c(OC)c1OC)-c1ccc([O-])c(=O)cc1[C@@H](NC(C)=O)CC2.[Cu+2]: > 100 µM
- COC(C)(C)C(O)C(O)C[C@H](C)C1CC=C2C1(C)CCC1[C@@]3(C)CCC(OC(C)=O)C(C)(C)C3CC(OC3OC(COC(C)=O)C(O)C(O)C3O)[C@@]21C (some centres undefined): > 10 µM

// query What measured TGI goes with CC(=O)OCC1OC(n2c(C)c(N=Nc3ccc(C)cc3)c(C)c(C#N)c2=S)C(OC(C)=O)C(OC(C)=O)C1OC(C)=O (centres undefined) ?
// result 74.7 µM

// query // returns reported TGI for input Oc1c(Br)cc(Br)cc1CN(Cc1cc(Br)cc(Br)c1O)C1CCCCC1
// result 53 µM

// query Would you mind telling me what TGI value was observed for C=C(Cl)C(C)(Cl)CCC(Cl)C(C)(C)Cl (centres undefined) ?
// result > 100 µM

// query Form field: reported TGI of COC(=O)c1cc(NC2OCC(OC(C)=O)C(OC(C)=O)C2OC(C)=O)nc(SC)c1C(=O)OC (centres undefined)
// result > 100 µM

// query I'd like to know its TGI. The molecule in question is O=C(CCl)N1CCCCC1C1(c2cc3ccccc3[nH]2)OCCO1 (centres undefined)
// result 13.9 µM

// query Returns the measured TGI for the input molecule. Input: CCOC(=O)CSc1nc2ccccc2c(=O)n1N
// result > 100 µM

----------
system: HCT-116 colon; assay: NCI tumour cell line growth inhibition, 48 h
reported.property: TGI

- CN(C)c1ccc(N=Nc2cccc3ccoc23)cc1: > 100 µM

// query Query TGI on HCT-116 colon for CCC1(O)CC(OC2CC(N(C)C)C(OC3CC(O)C(OC4OC(C)C(=O)C=C4N)C(C)O3)C(C)O2)c2c(O)c3c(c(O)c2C1C(=O)OC)C(=O)c1cccc(O)c1C3=O (configuration not stated)
// result > 100 µM

// query Recall the recorded TGI for CN(CCc1ccc(Br)cc1)CCN1CCCCC1 with HCT-116 colon and state it.
// result > 100 µM

// query Short answer please: TGI, HCT-116 colon, entry CC1(C)CCC(=O)c2c(O)ccc(O)c21
// result > 100 µM

// query For HCT-116 colon, provide TGI of COC(=O)c1cc(C#N)[nH]c1-c1ccsc1 please.
// result > 100 µM

// query What measured TGI is associated with N#CN=Nc1cc(Cl)c(N=NC#N)cc1Cl on HCT-116 colon?
// result > 100 µM

// query Query the reported TGI for HCT-116 colon; item: C=C(Cl)C(C)(Cl)CCC(Cl)C(C)(C)Cl (configuration not stated)
// result > 100 µM

----------
test system: CCRF-CEM leukemia; experiment: NCI tumour cell line growth inhibition, 48 h
Reported TGI values for a set of molecules

Please review the following examples before continuing.
* COc1ccc(NC(=O)C(=O)C(CC2C(=O)NC(=S)NC2=O)C(=O)c2ccc3ccccc3c2)c([N+](=O)[O-])c1 (stereo not drawn) | > 100 µM
* Cc1cc(NC(=O)c2ccc(NS(=O)(=O)CCO)cc2N2CCC3(CC2)CC3)nc(N2CCC(F)(F)CC2)n1 | > 66 µM
* c1ccc(COCC23CCN(Cc4ccccc4)C(CC(OCc4ccccc4)C2)S3)cc1 (stereo not drawn) | > 100 µM
* CCOC(=O)Cn1c(=O)c2nc(SC)sc2n(-c2ccc(C)cc2)c1=S | > 100 µM
* CC1OC(OC2C(OC(=O)[C@]34CCC(C)(C)C[C@H]3C3=CC[C@@H]5[C@@]6(C)CC[C@H](OC7OC(C(=O)O)C(O)C(O)C7O)C(C)(C)[C@@H]6CC[C@@]5(C)[C@]3(C)CC4)OCC(O)C2O)C(O)C(O)C1OC1OCC(O)C(O)C1O (stereo partly drawn) | > 100 µM
* CN(C)c1ccc(N=Nc2cccc3ccoc23)cc1 | > 100 µM
* C/C(=N\O)c1sc(-n2nc(-c3ccccc3)cc2-c2ccccc2)nc1C | 25.6 µM

Now for another entry.
// query Need TGI of NCCCNc1ccc2c(c1)[n+]([O-])c1ccccc1[n+]2[O-] , thanks.
// result 91.4 µM

----------
system: A549 NSCLC; assay: NCI tumour cell line growth inhibition, 48 h
reported.property: TGI

// query # input molecule: Cn1c(=O)n(-c2c3ccccc3c(Cl)c3ccccc23)n(C(C)(C)C)c1=O ; wanted: its TGI
// result > 100 µM

// query So what's the measured TGI for this one? CCOC(=O)c1ccc2c(c1)nc1n2C(c2c(F)cccc2F)SC1 (stereo unspecified)
// result > 100 µM

// query State the recorded TGI for this entry: CC12CN(CC[N+](C)(C)C)CC1(C)C1CCC2O1 (stereo unspecified)
// result > 100 µM

// query Endpoint output: TGI of O=C(NO)c1cccc(OCc2ccc(Br)cc2)c1 . Value?
// result > 58.5 µM

// query Entry O=S(=O)(NCCNc1cc(-c2cn(-c3ccccc3)nc2-c2cccc(O)c2)ccn1)c1ccc(C(F)(F)F)cc1 has what TGI?
// result 18.2 µM

// query Could you share which TGI value was measured for COc1ccc(C(=O)/C=C/c2cc3ccccc3[nH]c2=O)cc1 ?
// result > 100 µM

// query // TGI lookup, key: CC1CC(N)=Nc2ccccc2N1Cc1ccccc1 (stereo unspecified)
// result 32.7 µM

// query Look at this molecule and give its reported TGI. OCCN1CCN(CCO)Cc2ccccc2OCCOc2ccccc2C1
// result > 100 µM

// query Field request: TGI | item: CCC[CH2][Sn]1([CH2]CCC)[O]C(c2ccccn2)S(=O)(=O)[O]1 (stereo unspecified)
// result 34.3 µM

// query State the recorded TGI for this entry: COc1ccccc1/C=C/C(=O)c1sc(-c2cccnc2)nc1C
// result > 100 µM

// query Please give the measured TGI for this molecule: CCOC(=O)C12CCCC1(O)N(NC(=O)c1cccc(Cl)c1)C(C)=C2C(=O)OC (stereo unspecified)
// result > 100 µM

----------
tested on: COLO 205 colon; experiment: NCI tumour cell line growth inhibition, 48 h; in the data active means GI50 below about 0.43 µM; inactive means the rest
Hi! Could you answer with just one of these? active, inactive

Completed entries (count: 4):
• COc1ccc(C(=S)c2cc(OC)c(OC)c(OC)c2)cc1OC(=O)CCl = inactive
• CCC1CCc2nc3sc(C(=O)Nc4ccccc4F)c(N)c3cc2C1 (configuration not stated) = inactive
• CCCCCCCCCCCCCOC(=O)c1c(C)[nH]c(/C=C2\N=C(c3ccc[nH]3)C=C2OC)c1C = active
• COc1ccc(C(=O)/C=C/c2cc3ccccc3[nH]c2=O)cc1 = inactive

// query Could you check what this test reported for CN1CCN(C(=O)c2ccc(NC(=O)Nc3ccc(N(C)c4ccnc(Nc5ccc(CS(C)(=O)=O)cc5)n4)cc3)cc2)CC1 ?
// result inactive

// query Check the results log: what was the call for O=c1ncc(-c2ccc(C(F)(F)F)cc2)c(NC2CCCCCC2)[nH]1 ?
// result inactive

// query So what was the verdict on CCN(Cc1ccc(F)cc1)c1ccc(CO)c(Cl)c1 in this test?
// result inactive

----------
system: SN12C renal; assay: NCI tumour cell line growth inhibition, 48 h; in the data active = GI50 below about 0.43 µM; inactive = the rest
Give one outcome, nothing more. List: TRUE = active, FALSE = inactive

Consider the worked cases shown below.
* CS(=O)(=O)c1ccc(N/N=C/c2c(-c3ccc(S(C)(=O)=O)cc3)[nH]c3ccc(F)cc23)cc1 | FALSE
* CCCCCCCCCCCCCOC(=O)c1c(C)[nH]c(/C=C2\N=C(c3ccc[nH]3)C=C2OC)c1C | TRUE
* CC(=O)O[C@H](C[C@H](C(C)C)N(C)C(=O)[C@@H](NC(=O)[C@H]1CCCCN1C)C(C)C)c1nc(C(=O)N[C@@H](Cc2ccccc2)C[C@H](C)C(=O)O)c(C)s1 | TRUE

Pending compound:
// query // param item: CN1CCN(C(=O)c2ccc(NC(=O)Nc3ccc(N(C)c4ccnc(Nc5ccc(CS(C)(=O)=O)cc5)n4)cc3)cc2)CC1 ; yields the recorded call
// result FALSE

----------
test system: HCT-116 colon; experiment: NCI tumour cell line growth inhibition, 48 h
A collection of molecules and their measured TGI

Take a look at these entries with their results.
- CC1(C)S[C@@H]2[C@H](NC(=O)CCC[C@@H](N)C(=O)O)C(=O)N2[C@H]1C(=O)O: > 50 µM
- C[C@]12CCC3c4ccc(OC(=O)c5ccccc5)cc4CC[C@H]3C1CC[C@@H]2OC(=O)C12OC1CCC2=O (stereo not given in full): 7.18 µM
- COC(=O)c1cc(Br)c(C(=O)C(Cl)(Cl)Cl)[nH]1: > 100 µM
- O=C(OC(C(=O)O)C(OC(=O)c1ccccc1)C(=O)O)c1ccccc1 (stereo not given) (tested in a mixture with another compound): 55 µM
- O=C1O/C(=C\c2ccc(O)c(Br)c2)C(c2ccc(O)cc2)=C1Cl: > 100 µM

// query Find the recorded TGI belonging to CNC(=O)Nc1cc2c3c(c1)CCCN3CCC2 and report it.
// result > 10 µM

// query Entry under review: CCN(Cc1ccc(F)cc1)c1ccc(CO)c(Cl)c1 . Reported TGI?
// result 3.02 µM

// query Value lookup for TGI; key = CCOC(=O)C12CCCC1(O)N(NC(=O)c1cccc(Cl)c1)C(C)=C2C(=O)OC (stereo not given)
// result > 100 µM

// query Entry CCOC(=O)CSc1nc(-c2ccc(OC)cc2)c(C#N)c(=O)[nH]1 has what TGI?
// result > 100 µM

// query Would you kindly share the measured TGI for COC(=O)C1=CC(O)CCC1c1ccc(OC)cc1 (stereo not given) ?
// result > 100 µM
